TEST TARGET: Muscarinic acetylcholine receptor M2 (Homo sapiens) (UniProt P08172)
Sequence (P08172 whole entry): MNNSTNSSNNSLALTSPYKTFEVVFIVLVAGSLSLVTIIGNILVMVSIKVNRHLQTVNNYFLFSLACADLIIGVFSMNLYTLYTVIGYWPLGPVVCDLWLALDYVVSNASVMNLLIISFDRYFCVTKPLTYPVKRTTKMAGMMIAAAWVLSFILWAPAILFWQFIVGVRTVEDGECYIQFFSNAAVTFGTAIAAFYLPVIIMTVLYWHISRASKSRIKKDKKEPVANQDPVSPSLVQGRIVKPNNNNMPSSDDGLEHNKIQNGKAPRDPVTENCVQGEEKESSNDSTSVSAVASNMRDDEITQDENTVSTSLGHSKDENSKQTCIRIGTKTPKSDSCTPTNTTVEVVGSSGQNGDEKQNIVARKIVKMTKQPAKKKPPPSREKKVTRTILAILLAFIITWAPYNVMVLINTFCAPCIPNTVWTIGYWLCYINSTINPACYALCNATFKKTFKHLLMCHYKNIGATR
ASSAY COMMENT: Agonist activity at recombinant human muscarinic M2 receptor at 10 uM by GTPgamma[35S] binding-based assay relative to agonist
Type: functional
MEASUREMENT NAME: Activity (%)

Return reported Activity; argument: CN(CCCNC(=O)c1cccc(Br)c1)Cc1ccccc1 -11

What do we get for CN(CCCNC(=O)c1ccc(Cl)cc1)Cc1ccccc1 ? -9

Also CN(CCNC(=O)c1ccc(C#N)cc1)Cc1ccccc1 ? -3

Also, CN(CCCNC(=O)c1ccc(Cl)cc1)CCc1ccccc1 please. -10

And for CN(CCCNC(=O)c1ccc(C(F)(F)F)cc1)Cc1ccccc1 ? -9

A. COc1cccc(C(=O)NCCCN(C)Cc2ccccc2)c1
B. CCCc1ccc(C(=O)NCCCN(C)Cc2ccccc2)cc1
Of A and B , which carries the smaller reported Activity figure? To answer, give the label that identifies your chosen option. B

P. CN(CCNC(=O)c1ccc(Cl)cc1)Cc1ccccc1
Q. COc1ccc(C(=O)NCCCN(C)Cc2ccccc2)cc1
R. CN(CCNC(=O)c1ccc([N+](=O)[O-])cc1)Cc1ccccc1
Hello, I need these entries ordered by Activity, highest reading first. Thanks! List the labels according to the requested ordering. R, Q, P
(R: -1%, Q: -3%, P: -5%)

A. CN(CCCNC(=O)c1ccc(Br)cc1)Cc1ccccc1
B. CN(CCCNC(=O)c1ccc([N+](=O)[O-])cc1)Cc1ccccc1
Kindly identify which of A and B has the larger recorded Activity value. State your choice using its label. A
(A: -3%, B: -6%)

Entry source: ChEMBL document CHEMBL4130363
